# STUDY_SYSTEM: Prostaglandin G/H synthase 1 (Mus musculus) (UniProt P22437)
# Sequence (P22437 whole entry): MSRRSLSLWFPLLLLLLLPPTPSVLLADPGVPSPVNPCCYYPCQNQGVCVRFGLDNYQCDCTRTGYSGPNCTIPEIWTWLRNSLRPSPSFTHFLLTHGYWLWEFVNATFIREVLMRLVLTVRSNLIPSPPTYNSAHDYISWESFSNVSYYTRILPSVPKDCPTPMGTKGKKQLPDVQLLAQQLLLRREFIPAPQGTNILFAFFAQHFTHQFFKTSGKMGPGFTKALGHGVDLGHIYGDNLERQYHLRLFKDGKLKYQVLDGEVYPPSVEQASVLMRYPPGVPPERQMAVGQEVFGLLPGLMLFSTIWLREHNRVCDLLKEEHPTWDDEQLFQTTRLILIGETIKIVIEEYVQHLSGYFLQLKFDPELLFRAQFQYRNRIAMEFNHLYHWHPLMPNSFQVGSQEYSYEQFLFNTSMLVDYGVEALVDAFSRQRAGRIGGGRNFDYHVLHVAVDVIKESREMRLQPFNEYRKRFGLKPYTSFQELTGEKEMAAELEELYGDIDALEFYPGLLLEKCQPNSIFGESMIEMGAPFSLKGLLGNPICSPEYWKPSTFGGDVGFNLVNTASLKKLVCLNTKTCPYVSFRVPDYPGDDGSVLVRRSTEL
# TEST_NAME: Inhibition of COX-1-mediated PGE2 production in arachidonic acid-stimulated mouse J774 cells at 10 uM incubated for 15 mins prior to arachidonic acid-challenge by radioimmunoassay
# Assay type: cell-based
Listed next: entries and their corresponding inhibition.
The reply should contain only the number, in %.

Example entries and their recorded answers appear below.
CSc1ccc(-n2c(-c3ccc(S(C)(=O)=O)cc3)cc(CC(=O)OCCO)c2C)cc1; 62
COc1ccc(-n2c(-c3ccc(S(C)(=O)=O)cc3)cc(CC(=O)OCCO[N+](=O)[O-])c2C)cc1; 55
Cc1c(CC(=O)OCCO[N+](=O)[O-])cc(-c2ccc(S(C)(=O)=O)cc2)n1-c1ccccc1; 19
Cc1c(CC(=O)OCCCO)cc(-c2ccc(S(C)(=O)=O)cc2)n1-c1cccc(F)c1; 0
CSc1ccc(-n2c(-c3ccc(S(C)(=O)=O)cc3)cc(CC(=O)OCCCO)c2C)cc1; 36
Cc1c(CC(=O)OCCCO[N+](=O)[O-])cc(-c2ccc(S(C)(=O)=O)cc2)n1-c1ccc(F)cc1; 28
COc1ccc(-n2c(-c3ccc(S(C)(=O)=O)cc3)cc(CC(=O)OCCCO)c2C)cc1; 27
CSc1ccc(-n2c(-c3ccc(S(C)(=O)=O)cc3)cc(CC(=O)O)c2C)cc1; 45
Cc1c(CC(=O)OCCO)cc(-c2ccc(S(C)(=O)=O)cc2)n1-c1ccc(F)cc1; 21
Cc1c(CC(=O)OCCO)cc(-c2ccc(S(C)(=O)=O)cc2)n1-c1ccccc1; 22

Now examine the next entry.
Prompt: # inhibition lookup, item Cc1c(CC(=O)OCCCO[N+](=O)[O-])cc(-c2ccc(S(C)(=O)=O)cc2)n1-c1cccc(F)c1
Response: 75
